# ASSAY INFO: Particle size detection of LNP (Brookhaven NanoBrook Omni, DLS)
# Assay type: physicochemical
# ASSAY CONDITIONS: LNPs after coating mRNA (luciferase)
MEASURED PARAMETER: Particle size (nm·days)

{"columns": ["MOLECULE", "ASSAY VALUE"],
 "data": [
  ["CCCCCCCCC(CCCCCC)C(=O)OCCCCCCC(=O)N(CCCN(C)C)C(C(=O)NCCCCCCCC(=O)OCC(C)CCCCCCC)C(C)(C)C (stereo not drawn)", 94.7],
  ["CCCCCCCC/C=C\\CCCCCCCCNC(=O)C(N(CCCN(C)C)C(=O)CCCCCCC/C=C\\C[C@H](O)CCCCCC)C(C)(C)C (stereo partly drawn)", 128.73],
  ["CCCCC/C=C\\C/C=C\\CCCCCCCC(=O)N(CCCN(C)C)C(C(=O)NCCCCCCCC(=O)OC(CCCCCCCC)CCCCCCCC)C1CC1 (stereo not drawn)", 160.5],
  ["CCCCCCCC/C=C\\CCCCCCCCNC(=O)C(N(CCCN(C)C)C(=O)OCCCCCCCCCCCC)C(C)(C)C (stereo not drawn)", 104.99],
  ["CCCCCCCCC(CCCCCC)C(=O)OCCCCCCNC(=O)C(N(CCCN(CC)CC)C(=O)CCCCCCC/C=C\\C[C@H](O)CCCCCC)C(C)(C)C (stereo partly drawn)", 150.04],
  ["CC/C=C\\C/C=C\\C/C=C\\C/C=C\\C/C=C\\CCCC(=O)N(CCCN(CC)CC)C(C(=O)NCCCCCCOC(=O)C(CCCCCC)CCCCCCCC)C(C)(C)C (stereo not drawn)", 162.45],
  ["CCCCCCCCCCCC(=O)N(CCCN(CC)CC)C(C(=O)NCCCCCCCC(=O)OC(CCCCCCCC)CCCCCCCC)C(C)(C)C (stereo not drawn)", 234.57],
  ["CCCCCCCCC(CCCCCC)COC(=O)CCCCCCC(=O)N(CCCN(C)C)C(C(=O)NCCCCCCOC(=O)C(CCCCCC)CCCCCCCC)C(C)(C)C (stereo not drawn)", 92.2],
  ["CCCCCCCC/C=C\\CCCCCCCCOC(=O)CCC(=O)N(CCCN(C)C)C(C(=O)NCCCC(=O)OCCCCCCCC)C(C)(C)C (stereo not drawn)", 190.71],
  ["CCCCC/C=C\\C/C=C\\CCCCCCCC(=O)N(CCCN(C)C)C(C(=O)NCCCCCCCC(=O)OC(CCCCCCCC)CCCCCCCC)C(C)(C)C (stereo not drawn)", 178.88],
  ["CCCCCCCCCCCCCCNC(=O)C(N(CCCN(CC)CC)C(=O)CCCCCCCCCCCCC)C(C)(C)C (stereo not drawn)", 136.93],
  ["CCCCCCCCC(CC)OC(=O)CCCCCCCNC(=O)C(N(CCCN(C)C)C(=O)CCCCCCC(=O)OC(CC)CCCCCCCC)C(C)(C)C (stereo not drawn)", 93.6],
  ["CCCCCCCCCCCCCC(=O)N(CCCN(C)C)C(C(=S)NCCCCCCCC(=O)OC(CCCCCCCC)CCCCCCCC)C(C)(C)C (stereo not drawn)", 162.23],
  ["CCCCCCCCCCCC(=O)N(CCCN(C)CCCCO)C(C(=O)NCCCCCCCC(=O)OC(CCCCCCCC)CCCCCCCC)C(C)(C)C (stereo not drawn)", 204.35],
  ["CCCCC/C=C\\C/C=C\\CCCCCCCC(=O)N(CCCN(C)C)C(C)C(=O)NCCCCCCCC(=O)OC(CCCCCCCC)CCCCCCCC (stereo not drawn)", 115.8],
  ["CCCCCCCCC(CCCCCCCC)OC(=O)CCCCCCCNC(=O)C(N(CCCN(C)C)C(=O)CCCCCCCCCC(=O)OC(CCCCCC)CCCCCC)C(C)(C)C (stereo not drawn)", 101.7],
  ["CCCCCCCCCCCCCCNC(=O)C(N(CCCN(CC)CC)C(=O)CCCCCCC/C=C\\C[C@H](O)CCCCCC)C(C)(C)C (stereo partly drawn)", 253.06],
  ["CCCCCCCCCCCC(=O)N(CCCN(C)C)C(C(=O)NCCCCCCCC(=O)OC(CCCCCCCC)CCCCCCCC)C(C)(C)C (stereo not drawn)", 240.23],
  ["CC/C=C\\C/C=C\\C/C=C\\C/C=C\\C/C=C\\CCCC(=O)N(CCCN(CC)CC)C(C(=O)NCCCCCCCCCCCCCC)C(C)(C)C (stereo not drawn)", 261.64],
  ["CCCCCCCCC(CC)OC(=O)CCCCCCCNC(=O)C(N(CCCN(C)C)C(=O)CCCCCCCCCC(=O)OC(CCCCCC)CCCCCC)C(C)(C)C (stereo not drawn)", 97.4],
  ["CCCCCCCCC(CCCCCC)C(=O)OCCCCCCNC(=O)C(N(CCCN(C)C)C(=O)CCCCCCC(=O)OCC(C)CCCCCCC)C(C)(C)C (stereo not drawn)", 153]
]}

----------
# ASSAY INFO: Particle size detection of LNP (Brookhaven NanoBrook Omni, DLS)
# Type: physicochemical
# ASSAY CONDITIONS: LNPs after coating mRNA (luciferase)
Measured PDI values are reported for all entries that follow.

{"columns": ["COMPOUND", "PDI"],
 "data": [
  ["CCCCCCCCC(CCCCCC)COC(=O)CCCCCCC(=O)N(CCCN(C)C)C(C(=O)NCCCCCCOC(=O)C(CCCCCC)CCCCCCCC)C(C)(C)C (stereo not drawn)", 0.18],
  ["CCCCC/C=C\\C/C=C\\CCCCCCCC(=O)N(CCCN(C)C)C(C(=O)NCCCCCCCC(=O)OC(CCCCCCCC)CCCCCCCC)C(C)(C)C (stereo not drawn)", 0.18],
  ["CC/C=C\\C/C=C\\C/C=C\\C/C=C\\C/C=C\\CCCC(=O)N(CCCN(CC)CC)C(C(=O)NCCCCCCOC(=O)C(CCCCCC)CCCCCCCC)C(C)(C)C (stereo not drawn)", 0.16],
  ["CCCCCCCCC(CCCCCCCC)OC(=O)CCCCCCCNC(=O)C(N(CCCN(C)C)C(=O)CCCCCCCCCC(=O)OC(CCCCCC)CCCCCC)C(C)(C)C (stereo not drawn)", 0.18],
  ["CCCCCCCCC(CCCCCC)C(=O)OCCCCCCNC(=O)C(N(CCCN(CC)CC)C(=O)CCCCCCC/C=C\\C[C@H](O)CCCCCC)C(C)(C)C (stereo partly drawn)", 0.26],
  ["CCCCCCCCC(CC)OC(=O)CCCCCCCNC(=O)C(N(CCCN(C)C)C(=O)CCCCCCC(=O)OC(CC)CCCCCCCC)C(C)(C)C (stereo not drawn)", 0.19]
]}

----------
# ASSAY INFO: Particle size detection of LNP (Brookhaven NanoBrook Omni, DLS)
# Assay type: physicochemical
# ASSAY CONDITIONS: LNPs after coating mRNA (luciferase)
Measured PDI values are reported for all entries that follow.

{"columns": ["COMPOUND", "PDI"],
 "data": [
  ["CCCCC/C=C\\C/C=C\\CCCCCCCC(=O)N(CCCN(C)C)C(C(=O)NCCCCCCCC(=O)OC(CCCCCCCC)CCCCCCCC)C1CC1 (stereo not drawn)", 0.19],
  ["CCCCCCCCCCCC(=O)N(CCCN(C)C)C(C(=O)NCCCCCCCC(=O)OC(CCCCCCCC)CCCCCCCC)C(C)(C)C (stereo not drawn)", 0.17],
  ["CCCCCCCCC(CCCCCC)C(=O)OCCCCCCNC(=O)C(N(CCCN(C)C)C(=O)CCCCCCC(=O)OCC(C)CCCCCCC)C(C)(C)C (stereo not drawn)", 0.11],
  ["CCCCCCCCC(CCCCCC)COC(=O)CCCCCCC(=O)N(CCCN(C)C)C(C(=O)NCCCCCCCC(=O)OC(CC)CCCCCCCC)C(C)(C)C (stereo not drawn)", 0.26],
  ["CCCCCCCCCCCC(=O)N(CCCN(CC)CC)C(C(=O)NCCCCCCCC(=O)OC(CCCCCCCC)CCCCCCCC)C(C)(C)C (stereo not drawn)", 0.14],
  ["CCCCCCCCCCCCCCNC(=O)C(N(CCCN(CC)CC)C(=O)CCCCCCC/C=C\\C[C@H](O)CCCCCC)C(C)(C)C (stereo partly drawn)", 0.27]
]}

----------
# ASSAY INFO: Particle size detection of LNP (Brookhaven NanoBrook Omni, DLS)
# Assay type: physicochemical
# ASSAY CONDITIONS: LNPs after coating mRNA (luciferase)
Threshold check on PDI: at or above 0.2 gives 1 (yes), strictly below gives 0 (no).

{"columns": ["COMPOUND", "QUALITATIVE LABEL"],
 "data": [
  ["CCCCCCCC/C=C\\CCCCCCCCNC(=O)C(N(CCCN(C)C)C(=O)NCCCCCCCCCCCC)C(C)(C)C (centres unmarked)", "0 (no)"],
  ["CCCCCCCCCCCC(=O)N(CCCN(C)CCCCO)C(C(=O)NCCCCCCCC(=O)OC(CCCCCCCC)CCCCCCCC)C(C)(C)C (centres unmarked)", "0 (no)"],
  ["CCCCCCCC/C=C\\CCCCCCCCOC(=O)CCC(=O)N(CCCN(CC)CC)C(C(=O)NCCCC(=O)OCCCCCCCC)C(C)(C)C (centres unmarked)", "0 (no)"],
  ["CCCCCCCCCCCCCCNC(=O)C(N(CCCN(CC)CC)C(=O)CCCCCCCCCCCCC)C(C)(C)C (centres unmarked)", "1 (yes)"],
  ["CC/C=C\\C/C=C\\C/C=C\\C/C=C\\C/C=C\\CCCC(=O)N(CCCN(CC)CC)C(C(=O)NCCCCCCCCCCCCCC)C(C)(C)C (centres unmarked)", "1 (yes)"],
  ["CCCCCCCCC(CC)OC(=O)CCCCCCC(=O)N(CCCN(C)C)C(C(=O)NCCCCCCOC(=O)C(CCCCCC)CCCCCCCC)C(C)(C)C (centres unmarked)", "0 (no)"],
  ["CCCCCCCC/C=C\\CCCCCCCCOC(=O)CCC(=O)N(CCCN(C)C)C(C(=O)NCCCC(=O)OCCCCCCCC)C(C)(C)C (centres unmarked)", "0 (no)"],
  ["CCCCCCCCC(CCCCCC)C(=O)OCCCCCCC(=O)N(CCCN(C)C)C(C(=O)NCCCCCCCC(=O)OCC(C)CCCCCCC)C(C)(C)C (centres unmarked)", "1 (yes)"]
]}
